Data provenance: patent US20100047907A1

- Test system: human P-glycoprotein (PGP)
- procedure details: Bidirectional digoxin Pgp transport across MDR-MDCK monolayers
- recorded conditions: dog, MDCK-MDR1, pH 7.4, Pgp transport, Papp B->A, shipped, 0.5% agarose medium apical only, Table 5 lower block c2; assayed 7 D
assay readout: Papp B→A at 120 min, 10 µM

compound	assayed system	assay readout	measured value
C[C@H]1O[C@@H](O[C@H]2[C@@H](O)C[C@H](O[C@H]3[C@@H](O)C[C@H](O[C@H]4CC[C@@]5(C)[C@H](CC[C@@H]6[C@@H]5C[C@@H](O)[C@]5(C)[C@@H](C7=CC(=O)OC7)CC[C@]65O)C4)O[C@@H]3C)O[C@@H]2C)C[C@H](O)[C@@H]1O [Digoxin, digoxin]	human P-glycoprotein (PGP)	Papp B→A at 120 min, 10 µM	82.7 nm/s

====

- assayed system: UniProt P08183
- Sequence (P08183 whole entry): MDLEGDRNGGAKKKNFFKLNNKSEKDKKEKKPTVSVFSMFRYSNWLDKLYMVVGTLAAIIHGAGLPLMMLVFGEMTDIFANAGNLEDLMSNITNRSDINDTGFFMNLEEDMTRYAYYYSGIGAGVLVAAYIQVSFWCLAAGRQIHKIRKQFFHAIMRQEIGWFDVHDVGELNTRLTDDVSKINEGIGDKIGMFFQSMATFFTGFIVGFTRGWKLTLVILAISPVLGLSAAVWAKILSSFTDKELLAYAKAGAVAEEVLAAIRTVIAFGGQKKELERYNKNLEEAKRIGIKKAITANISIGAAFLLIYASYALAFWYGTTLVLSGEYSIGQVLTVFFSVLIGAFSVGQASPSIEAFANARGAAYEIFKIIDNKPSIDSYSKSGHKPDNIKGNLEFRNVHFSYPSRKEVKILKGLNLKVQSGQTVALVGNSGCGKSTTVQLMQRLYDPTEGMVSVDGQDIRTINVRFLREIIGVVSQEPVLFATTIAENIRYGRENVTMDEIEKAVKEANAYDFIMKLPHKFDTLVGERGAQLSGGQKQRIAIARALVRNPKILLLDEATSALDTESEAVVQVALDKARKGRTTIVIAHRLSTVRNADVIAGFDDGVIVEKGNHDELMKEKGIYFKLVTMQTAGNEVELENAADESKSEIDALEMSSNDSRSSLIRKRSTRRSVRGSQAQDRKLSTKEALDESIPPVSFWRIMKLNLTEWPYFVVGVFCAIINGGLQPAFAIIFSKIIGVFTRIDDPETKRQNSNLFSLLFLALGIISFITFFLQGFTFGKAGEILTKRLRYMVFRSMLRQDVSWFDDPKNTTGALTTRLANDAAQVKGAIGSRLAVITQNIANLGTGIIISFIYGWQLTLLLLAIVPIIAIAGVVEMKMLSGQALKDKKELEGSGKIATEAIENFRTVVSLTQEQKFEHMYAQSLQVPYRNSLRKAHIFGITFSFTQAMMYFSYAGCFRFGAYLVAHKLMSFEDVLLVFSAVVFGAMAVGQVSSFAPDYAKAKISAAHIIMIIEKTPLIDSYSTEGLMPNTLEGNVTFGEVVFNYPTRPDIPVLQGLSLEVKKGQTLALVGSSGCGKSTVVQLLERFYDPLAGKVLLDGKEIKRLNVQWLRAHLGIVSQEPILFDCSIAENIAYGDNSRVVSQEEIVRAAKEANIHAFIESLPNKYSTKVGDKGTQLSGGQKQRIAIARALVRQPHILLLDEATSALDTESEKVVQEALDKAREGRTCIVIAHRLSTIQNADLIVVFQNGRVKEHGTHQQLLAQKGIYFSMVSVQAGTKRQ
- procedure details: Bidirectional digoxin Pgp transport across Caco-2 monolayers
- recorded conditions: Caco-2, pH 7.4

compound	Papp A→B at 120 min, 10 µM (×10⁻⁶ cm/s)
C[C@H]1O[C@@H](O[C@H]2[C@@H](O)C[C@H](O[C@H]3[C@@H](O)C[C@H](O[C@H]4CC[C@@]5(C)[C@H](CC[C@@H]6[C@@H]5C[C@@H](O)[C@]5(C)[C@@H](C7=CC(=O)OC7)CC[C@]65O)C4)O[C@@H]3C)O[C@@H]2C)C[C@H](O)[C@@H]1O [Digoxin, digoxin]	0.66

====

- Test system: P-gp
- procedure details: Bidirectional digoxin Pgp transport across MDR-MDCK monolayers
- recorded conditions: human, MDCK-MDR1, pH 7.4, Pgp transport, Papp B->A, Table 10 control; assayed day 12

compound	Papp B→A at 2 h, 10 µM, ×10⁻⁶ cm/s
C[C@H]1O[C@@H](O[C@H]2[C@@H](O)C[C@H](O[C@H]3[C@@H](O)C[C@H](O[C@H]4CC[C@@]5(C)[C@H](CC[C@@H]6[C@@H]5C[C@@H](O)[C@]5(C)[C@@H](C7=CC(=O)OC7)CC[C@]65O)C4)O[C@@H]3C)O[C@@H]2C)C[C@H](O)[C@@H]1O [Digoxin, digoxin]	10.9

====

- Tested on: human P-glycoprotein (PGP)
- procedure details: Bidirectional digoxin Pgp transport across MDR-MDCK monolayers
- recorded conditions: dog, MDCK-MDR1, pH 7.4, Pgp transport, Papp A->B, Table 7 shipped at day 6, 0.5% agarose medium basolateral only; assayed day 12
assay readout: Papp A→B at 2 h, 10 µM (×10⁻⁶ cm/s)

smiles structure	assayed system	measured value
C[C@H]1O[C@@H](O[C@H]2[C@@H](O)C[C@H](O[C@H]3[C@@H](O)C[C@H](O[C@H]4CC[C@@]5(C)[C@H](CC[C@@H]6[C@@H]5C[C@@H](O)[C@]5(C)[C@@H](C7=CC(=O)OC7)CC[C@]65O)C4)O[C@@H]3C)O[C@@H]2C)C[C@H](O)[C@@H]1O	human P-glycoprotein (PGP)	0.09

====

- assayed system: UniProt:P08183
- procedure details: in vitro
- recorded conditions: Caco-2, pH 7.4, Pgp transport, Papp B->A

smiles structure	Papp B→A at 120 min, 10 µM / ×10⁻⁶ cm/s
C[C@H]1O[C@@H](O[C@H]2[C@@H](O)C[C@H](O[C@H]3[C@@H](O)C[C@H](O[C@H]4CC[C@@]5(C)[C@H](CC[C@@H]6[C@@H]5C[C@@H](O)[C@]5(C)[C@@H](C7=CC(=O)OC7)CC[C@]65O)C4)O[C@@H]3C)O[C@@H]2C)C[C@H](O)[C@@H]1O	21.6
